Origin of the recorded values: ChEMBL document CHEMBL5724914

- measurement-context: human gut metagenome, 24 h, 2 µM; also: call rule not given here
endpoint-name: Bacterial Biotransformation

For orientation, consider the following solved cases.
{"compound": "COC(=O)C(c1ccccc1)C1CCCCN1 (stereo not drawn) [METHYLPHENIDATE]", "Bacterial Biotransformation": "Compound NOT metabolized"}
{"compound": "CC(=O)OCC(CCn1cnc2cnc(N)nc21)COC(C)=O", "Bacterial Biotransformation": "Compound metabolized"}
{"compound": "CC(C)c1c(CN(C)C(C)Cc2ccccc2)n(C)n(-c2ccccc2)c1=O (stereo not drawn)", "Bacterial Biotransformation": "Compound metabolized"}
{"compound": "CC(C)C[C@H]1C(=O)N2CCC[C@H]2[C@]2(O)O[C@](NC(=O)[C@@H]3C=C4c5cccc6[nH]c(Br)c(c56)C[C@H]4N(C)C3)(C(C)C)C(=O)N12.CS(=O)(=O)O [BROMOCRIPTINE MESYLATE]", "Bacterial Biotransformation": "Compound metabolized"}

[Q] Find the recorded Bacterial Biotransformation belonging to O=C1CN2Cc3c(ccc(Cl)c3Cl)N=C2N1 [ANAGRELIDE] and report it.
[A] Compound metabolized

[Q] Find the recorded Bacterial Biotransformation belonging to Cc1nc(Nc2ncc(C(=O)Nc3c(C)cccc3Cl)s2)cc(N2CCN(CCO)CC2)n1 [DASATINIB ANHYDROUS] and report it.
[A] Compound metabolized

[Q] Find the recorded Bacterial Biotransformation belonging to COc1cc(NC(C)CCCN)c2ncccc2c1.O=P(O)(O)O.O=P(O)(O)O (stereo not drawn) [PRIMAQUINE PHOSPHATE] and report it.
[A] Compound NOT metabolized

[Q] Find the recorded Bacterial Biotransformation belonging to CCCCCNC(=N)N/N=C/c1c[nH]c2ccc(OC)cc12.O=C(O)/C=C\C(=O)O [TEGASEROD MALEATE] and report it.
[A] Compound NOT metabolized
